Attribution: PubChem BioAssay (NCI)

- Test system: SK-MEL-28 melanoma
- PROCEDURE_DETAILS: NCI tumour cell line growth inhibition, 48 h
TGI listing for selected molecules.
MEASUREMENT_KIND: TGI

MOLECULE	MEASUREMENT_KIND	EXPERIMENTAL_RESULT
CCOS(C)(=O)=O	TGI	> 100 µM
O=C1NC(N2CCOCC2)=N/C1=C\c1ccco1	TGI	> 100 µM
O=C(Nc1cccc(C(F)(F)F)c1)c1ccc(NC2=C(Cl)C(=O)N(Cc3ccc(Cl)cc3Cl)C2=O)cc1	TGI	30.9 µM
COc1ccc(OCC(=O)O)c2c1CCCC2=O	TGI	> 100 µM
On1c(-c2ccccc2)c(-c2ccccc2N2CCCC2)c2ccccc21	TGI	> 100 µM
CCC[CH2][Sn]([CH2]CCC)([O]C(=O)c1ccc(OC)c(OC)c1OC)[O][Sn]([CH2]CCC)([CH2]CCC)[O]C(=O)c1ccc(OC)c(OC)c1OC	TGI	0.723 µM
Cc1ccc(S(=O)(=O)n2c3c(c4ccccc42)CCN2C[C@H]([C@H](C)Br)CC[C@@H]32)cc1	TGI	> 100 µM
C/C(=N\N=C1/C(=O)OC(c2ccccc2)=C1C(=O)c1ccccc1)c1ccc([N+](=O)[O-])cc1	TGI	> 100 µM
N#Cc1nn(-c2cc(=O)[nH]c3ccc(Cl)cc23)c(N)c1C#N	TGI	> 100 µM
O=S(=O)(O)C(CO)c1ccccc1 (configuration not stated) (tested in a mixture with another compound)	TGI	> 100 µM
O=C(CC1C(=O)Nc2ccccc2S1=O)Nc1cc(Cl)ccc1Cl (configuration not stated)	TGI	> 100 µM
O=C(/C(=C/c1ccc(Cl)cc1)c1ccccc1)c1ccccc1	TGI	30.6 µM
N#CC(C(=O)/C(=N\NC(N)=O)C(C#N)c1ccc(Cl)cc1)c1ccc(Cl)cc1 (configuration not stated)	TGI	> 100 µM
N#CC(C#N)=C1SC(=Nc2ccccc2)C(=Nc2ccccc2)N1c1ccccc1	TGI	> 58 µM
N=c1c2c(-c3ccccc3)c(-c3ccccc3)n(Cc3ccccc3)c2ncn1C1CCC(O)CC1 (configuration not stated)	TGI	2.22 µM
CC1=CCC([C@@](C)(O)CCCC(C)(C)N=C=S)CC1 (some centres not stated)	TGI	30.2 µM
Cc1ccc(C)c(NC(=O)c2cccc([N+](=O)[O-])c2O)c1	TGI	> 100 µM
COC(=O)c1ccc2c(c1)C(=O)c1c-2n(CCCN=[N+]=[N-])c(=O)c2cc(OC)c(OC)cc12	TGI	> 100 µM
CCC(C)(C)c1ccc(OCCCCNC(=O)c2ccc3ccccc3c2O)c(C(C)(C)CC)c1	TGI	> 100 µM
Cc1ccc(/C=N\NC2c3cc(Cl)ccc3Nc3nc(=O)[nH]c(C)c32)cc1 (configuration not stated)	TGI	> 100 µM
Cc1nnc(Nc2ccc(NC(=O)Nc3ccc(Cl)cc3)cc2)c2ccccc12	TGI	3.2 µM
CC1CC2CCCC(O)=C2C(=O)O1 (configuration not stated)	TGI	> 100 µM
O=C(Nc1cccc(Cl)c1)C(=O)C(C(=O)c1ccc2ccccc2c1)C1OC(=O)c2ccccc21 (configuration not stated)	TGI	25.8 µM
O=C(O)CCNc1ncnc2nc[nH]c12	TGI	> 100 µM
CC(=O)NC1C(OCc2ccccc2)OC(CO)C(O)C1OCC(=O)N[C@@H](C)C(=O)N[C@H](CCC(=O)NCCCNc1c2ccccc2nc2cccc([N+](=O)[O-])c12)C(N)=O (some centres not stated)	TGI	0.751 µM
COC1=CC(=O)c2c(c(-c3nc(C)cs3)cn2C)C1=O	TGI	16.1 µM
N[C@@H](Cc1ccccc1)C(=O)N1CCC[C@@H]1P(=O)(Oc1ccccc1)Oc1ccccc1	TGI	> 100 µM
COc1cc(OC)c2c(=O)cc(-c3ccc(OC)c(OC)c3OC)oc2c1	TGI	> 100 µM
CC(=NNC(=S)Nc1ccccc1)c1cccc(C(C)=NNC(=S)Nc2ccccc2)n1	TGI	> 100 µM
BrC(=C(c1ccc(OC2CCCCO2)cc1)c1ccc(OC2CCCCO2)cc1)c1ccccc1 (configuration not stated)	TGI	> 100 µM
NS(=O)(=O)c1ccc(N=Nc2c(O)c(C(=O)O)cc3ccccc23)cc1	TGI	> 100 µM
O=C1OCC/C1=N/O	TGI	> 100 µM
O=C(c1ccco1)c1c(C(F)(F)F)nc2ccc(Cl)cc2[n+]1[O-]	TGI	> 100 µM
COc1cccc(N2C(Cl)C(=O)C2c2c[nH]c3ccccc23)c1 (configuration not stated)	TGI	> 100 µM
CCNC(=S)NNC(=O)C12CC3CC(CC(C3)C1)C2	TGI	> 100 µM
COc1ccc(C(=O)/C=C/c2ccc(OCCCOc3ccc(/C=C/C(=O)c4ccc(OC)cc4)cc3)cc2)cc1	TGI	> 100 µM
CC(c1ccccc1)N1CCN(C(C)c2ccccc2)CC1 (configuration not stated)	TGI	95.4 µM
COc1cc(OC)cc(C(=O)CC(=O)c2cc(OC)cc(OC)c2)c1	TGI	> 100 µM
COC(=O)/C=C\C(C#N)(C#N)N=Cc1ccc(C)cc1	TGI	19.8 µM
Cc1c(O)nc(-n2[nH]c3c(c2=O)CCCC3)[nH]c1=O	TGI	> 100 µM
COc1ccc(-c2ccc(=O)oc2C#Cc2cc(OC)c(OC)c(OC)c2)cc1O	TGI	> 100 µM
O=C1c2ccccc2C(=O)N1n1c(Cc2ccc([N+](=O)[O-])cc2)n[nH]c1=O	TGI	> 100 µM
